Provide the reported pKi of each item.
Protein target, amino acids: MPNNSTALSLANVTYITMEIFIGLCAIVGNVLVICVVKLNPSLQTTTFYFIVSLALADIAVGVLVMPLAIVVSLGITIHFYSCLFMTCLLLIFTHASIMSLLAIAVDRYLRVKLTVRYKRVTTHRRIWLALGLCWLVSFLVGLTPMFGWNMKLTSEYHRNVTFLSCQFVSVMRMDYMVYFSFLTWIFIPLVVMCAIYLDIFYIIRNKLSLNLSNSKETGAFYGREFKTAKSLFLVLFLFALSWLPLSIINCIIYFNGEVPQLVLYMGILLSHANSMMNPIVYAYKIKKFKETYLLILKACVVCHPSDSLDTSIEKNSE
Please note pKi is a logarithmic value: minus log10 of concentration in mol/L. Answer with that number alone.

## Task Can you look up the measured pKi of `CNc1ncnc2c1ncn2[C@@H]1SC[C@@H](O)[C@H]1O` for me?
## Result 8.32

## Task Can you look up the measured pKi of `CNC(=O)[C@H]1S[C@@H](n2cnc3c(NCc4cccc(I)c4)ncnc32)[C@H](O)[C@@H]1O` for me?
## Result 9.60

Hello, the source for this data is ChEMBL document CHEMBL1140153, in case you need it.
